# Tested on: HT29 colon
# assay method text: NCI-60 one-dose screen, 48 h (100 = growth as untreated, 0 = no growth, -100 = all killed)
# run conditions: 10 µM unless noted
# Experimental: Growth inhibition of the HT29 human tumor cell line is measured as a screen for anti-cancer activity. Cells are grown in 96 well plates and exposed to the test compound for 48 hours. Compounds are tested at a single concentration, which is 10^-5 M for most compounds. The reported endpoint is percent growth (GI% or GIPRCNT), where numbers from 0 - 100% represent growth inhibition, and numbers from -100% - 0 represent cell death. For example, a value of 40 represents 60% growth inhibition. […]
About 83,000 compounds went through this panel and 20% of them were active in at least one assay; those are over-represented in the sample as a whole.
reported property: growth (%)

{"chemical string": "Cc1c(C(=N)C(C#N)C#N)c(=N)oc2c1ccc1ccccc12", "reported property": "growth", "numeric value": 93.3}
{"chemical string": "Cc1ccc(S(=O)(=O)Nc2c(Br)cc(Br)cc2C(N)=O)cc1", "reported property": "growth", "numeric value": 128}
{"chemical string": "Oc1ccc2cc(Br)ccc2c1-c1c(O)ccc2cc(Br)ccc12", "reported property": "growth", "numeric value": 11.2}
{"chemical string": "N/C(=N\\C(N)=N\\c1nc2ccccc2s1)c1ccncc1", "reported property": "growth", "numeric value": 27.7}
{"chemical string": "COC(=O)c1cc(=O)nc(N/N=C/c2ccco2)s1", "reported property": "growth", "numeric value": 106}
{"chemical string": "O=S(=O)(NCCNc1nccc(-c2c(-c3cccc(O)c3)nc3sccn23)n1)c1ccc(F)cc1", "reported property": "growth", "numeric value": 38.3}
{"chemical string": "O=C1c2ccccc2-c2ccccc2C1(Cl)Cl", "reported property": "growth", "numeric value": -38.4}
{"chemical string": "CCOC(=O)CC(=O)OC", "reported property": "growth", "numeric value": 96.5}
{"chemical string": "Cc1ccc(S(=O)(=O)c2nc(-c3ccccc3)oc2S(C)(=O)=O)cc1", "reported property": "growth", "numeric value": -6.17}
{"chemical string": "CCOC(=O)c1cn2c3c(cccc3c1=O)C(=O)/C(=C/c1cccc(Cl)c1Cl)C2", "reported property": "growth", "numeric value": 99.9}
{"chemical string": "COc1cc(-c2nc(-c3nc4ccc(Cl)cc4[nH]3)cc3c2[nH]c2ccccc23)cc(OC)c1OC", "reported property": "growth", "numeric value": 75}

---

# Tested on: PC-3 prostate
# assay method text: NCI-60 one-dose screen, 48 h (100 = growth as untreated, 0 = no growth, -100 = all killed)
# run conditions: 10 µM unless noted
This is part of a sample that, as a whole, favours compounds with a hit. Of some 83,000 tested, about 20% had one in any assay.
reported property: growth (%)

{"chemical string": "C=C[C@@H]1C[C@H](O)Cc2ccccc2N1", "measurement unit": "%", "numeric value": 106}
{"chemical string": "C=C[C@@H]1C[C@@H]2Cc3cc(F)ccc3N1O2", "measurement unit": "%", "numeric value": 102}
{"chemical string": "N#C/C(=C1C=C/C(=N/O)C(Cl)=C/1)c1ccc(Cl)cc1", "measurement unit": "%", "numeric value": 22.2}
{"chemical string": "COc1cc([N+](=O)[O-])c2ncccc2c1O", "measurement unit": "%", "numeric value": 78.9}
{"chemical string": "O=C(/C=C/c1c[nH]c2ccccc12)c1ccc(O)c(CN2CCN(c3ccc(F)cc3)CC2)c1", "measurement unit": "%", "numeric value": 84.7}
{"chemical string": "COc1ccc(Nc2[nH]n3c(=O)cc(-c4ccccc4)nc3c2C(=O)Nc2ccc(C)cc2)c(OC)c1", "measurement unit": "%", "numeric value": 76.9}
{"chemical string": "Cc1c(C(=N)C(C#N)C#N)c(=N)oc2c1ccc1ccccc12", "measurement unit": "%", "numeric value": 97.8}
{"chemical string": "COc1ccc(NC(=O)c2c(Nc3ccc(OC)cc3OC)n[nH]c2N)c(OC)c1", "measurement unit": "%", "numeric value": 90.6}
{"chemical string": "O=[N+]([O-])c1cccc(-c2nc3sccn3c2-c2ccnc(NCCCNS(=O)(=O)c3ccc(Cl)cc3)n2)c1", "measurement unit": "%", "numeric value": 28.1}
{"chemical string": "COc1ccc(-c2c(-c3cc(OC)c4c(c3)OCO4)noc2N)cc1", "measurement unit": "%", "numeric value": 25.6}
{"chemical string": "Cc1cc(N/N=C/c2nc(-c3ccccc3)oc2C)c2cc(Br)ccc2n1", "measurement unit": "%", "numeric value": 79.5}
{"chemical string": "CC(C)c1ccc2occ(C=C3C(=O)NC(=O)NC3=O)c(=O)c2c1", "measurement unit": "%", "numeric value": 92}
{"chemical string": "COc1ccc2cc(-c3ccc(-c4ccc(C(=N)N)cc4)s3)ccc2c1", "measurement unit": "%", "numeric value": 88.6}
